Molecular target: Human PD-L1/PD-1 (Homo sapiens, UniProt Q9NZQ7)
Construct: made in house; host or cells: HEK293T
Sequence (Q9NZQ7 with tags, fused parts or gaps): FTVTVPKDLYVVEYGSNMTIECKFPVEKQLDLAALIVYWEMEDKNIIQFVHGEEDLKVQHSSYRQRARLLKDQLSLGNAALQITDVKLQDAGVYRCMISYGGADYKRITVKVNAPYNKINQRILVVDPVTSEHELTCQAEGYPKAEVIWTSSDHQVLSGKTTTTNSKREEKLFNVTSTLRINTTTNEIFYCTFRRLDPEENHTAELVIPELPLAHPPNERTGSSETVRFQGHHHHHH
Experiment: HTRF PD-1-Ig/PD-L1-His binding assay (human PD-L1)
Settings: cluster symbol; read-out: HTRF IC50 cluster
Description: The ability of the macrocyclic peptides of the present disclosure to bind to PD-L1 was investigated using a PD-1/PD-L1 Homogenous Time-Resolved Fluorescence (HTRF) binding assay. Homogenous Time-Resolved Fluorescence (HTRF) Assays of Binding of Soluble PD-1 to Soluble PD-L1. […]
Positions of bridges follow the written chain, without caps; N, C: chain ends. Non-standard residues stand in square brackets, D forms with d. Residues, ends and D or L forms follow the SMILES beside them. Hyp = O=C(O)[C@@H]1C[C@@H](O)CN1; NMeNle = CCCC[C@H](NC)C(=O)O; NMeA = CN[C@@H](C)C(=O)O; Dab = NCC[C@H](N)C(=O)O
Reported IC50 values follow for various compounds

compound	assay_target	result_value
CCCC[C@H]1C(=O)N(C)[C@@H](CCCC)C(=O)N[C@@H](Cc2ccccn2)C(=O)N[C@H](C(=O)NCC(N)=O)CSCC(=O)N[C@@H](Cc2ccc(O)cc2)C(=O)N(C)[C@@H](C)C(=O)N[C@@H](CC(N)=O)C(=O)N2CCC[C@H]2C(=O)N[C@@H](Cc2cnc[nH]2)C(=O)N[C@@H](CC(C)C)C(=O)N2C[C@H](O)C[C@H]2C(=O)N[C@@H](Cc2c[nH]c3ccccc23)C(=O)N[C@@H](CO)C(=O)N[C@@H](Cc2c[nH]c3ccccc23)C(=O)N1C	Human PD-L1/PD-1 (Homo sapiens, UniProt Q9NZQ7)	0.385 to 6.74 nM

// next entry
Which IC50 value belongs to CCCC[C@H]1C(=O)N(C)[C@@H](CCCC)C(=O)N[C@@H](C)C(=O)N[C@H](C(=O)NCC(N)=O)CSCC(=O)N[C@@H](Cc2ccc(O)cc2)C(=O)N(C)[C@@H](C)C(=O)N[C@@H](CC(=O)O)C(=O)N2CCC[C@H]2C(=O)N[C@@H](CCN)C(=O)N[C@@H](CC(C)C)C(=O)N2C[C@H](O)C[C@H]2C(=O)N[C@@H](Cc2c[nH]c3ccccc23)C(=O)N[C@@H](CO)C(=O)N[C@@H](Cc2c[nH]c3ccccc23)C(=O)N1C [Example 1158] ({CH2CO}-Y[NMeA]DP[Dab]L[Hyp]WSW[NMeNle][NMeNle]ACG-NH2; thioether N-14) ?
0.385 to 6.74 nM
